tested on: SIM-A9 cells; assay: Anti-inflammation assay: TNF-α production from LPS stimulated SIM-A9 cells (ELISA); format: cell-based; details: compound 2.7 μM; LPS stimulated SIM-A9 cells; read-out: TNF-α Inhibition
METRIC NAME: inhibition at 2.7 µM
The reply should read as a number followed by its unit.

Example entries and their recorded answers appear below.
COc1ccc(C(=O)O)c(NCc2ccco2)c1 [Compound 5-LV-54A] : 16%
O=C(O)c1cc(S(=O)(=O)NCCc2ccccc2)c(Cl)cc1NCc1ccco1 [WW056] : 13%
O=C(O)c1ccc(Cl)cc1NCc1ccoc1 [LD3-310] : 24%
CCNC(=O)c1cc(C(=O)O)c(NCc2ccco2)cc1Cl [SIV-W174] : 21%
COC(=O)c1cc(C(=O)N2CCCCC2)c(Cl)cc1NCc1ccco1 [SIV-W160] : 25%

## Input Output measured inhibition at 2.7 µM for this item: O=C(O)c1cc(C(=O)N2CCOCC2)c(Cl)cc1NCc1ccco1 [SIV-W166]
## Output 25%

## Input Output measured inhibition at 2.7 µM for this item: O=C(O)c1ccc(Cl)cc1NCc1cccs1 [LD3-309]
## Output 18%

## Input Output measured inhibition at 2.7 µM for this item: CN(Cc1ccccc1)S(=O)(=O)c1cc(C(=O)O)c(NCc2ccco2)cc1Cl [WW052]
## Output 24.1%

## Input Output measured inhibition at 2.7 µM for this item: O=C(O)c1ccc(Cl)cc1NCc1ccccc1 [LD3-305, 2-(Benzylamino)-4-chlorobenzoic Acid]
## Output 30%

## Input Output measured inhibition at 2.7 µM for this item: O=C(O)c1cc(S(=O)(=O)NC2CCCCC2)c(Cl)cc1NCc1ccco1 [WW082]
## Output 11%

## Input Output measured inhibition at 2.7 µM for this item: CNS(=O)(=O)c1cc(CO)c(NCc2ccco2)cc1Cl [WW109]
## Output 21%

###

molecular target: Aβ 1-40 (Homo sapiens); test: Aβ ThT aggregation (fibrillization) assay; assay type: biochemical; conditions: compound at 100 μM; Example 5; versus DMSO control; read-out: Inhibition of Aβ fibrillization at concentration 100 μM, Inhibition %
Sequence (P05067 672-711): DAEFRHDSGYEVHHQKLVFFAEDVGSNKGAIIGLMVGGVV
The threshold is inclusive: inhibition at 100 µM of exactly 20% counts as satisfied; values below receive not satisfied.

The following compounds have reported results that may help.
CCCCCCNS(=O)(=O)c1cc(C(=O)O)c(NCc2ccco2)cc1Cl : satisfied
O=C(O)c1cc(S(=O)(=O)N2CCCCC2)c(Cl)cc1NCc1ccco1 : not satisfied
CNS(=O)(=O)c1cc(C(=O)N(C)C)c(NCc2ccco2)cc1Cl : satisfied
CNS(=O)(=O)c1cc(C(=O)OC)c(NCc2ccco2)cc1Cl : satisfied
O=C(O)c1cc(S(=O)(=O)Nc2ccccc2)c(Cl)cc1NCc1ccco1 : not satisfied

Query compound follows.
## Input Can NS(=O)(=O)c1cc(C(=O)O)c(NCc2ccco2)cc1Cl [Furosemide, reference compound] be said to have inhibition at 100 µM at or above 20%?
## Output not satisfied

###

This listing pairs molecules with measured IC50.
target: biotinylated amyloid-beta(1-42) (bioAbeta42) (Homo sapiens, UniProt P05067); format: biochemical; conditions: Example 5; ND = inhibition activity not detected over 200 μM; read-out: Inhibition of Aβ oligomerization, μM IC50
Sequence (P05067 672-713): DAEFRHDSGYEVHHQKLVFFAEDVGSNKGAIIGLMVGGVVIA
The answer is to be given in µM; state only the numeric part.

Example entries and their recorded answers appear below.
O=C(O)c1cc(S(=O)(=O)Nc2ccccc2)c(Cl)cc1NCc1ccco1 : 168
CNS(=O)(=O)c1cc(C(N)=O)c(NCc2ccco2)cc1Cl : 82.4
CNS(=O)(=O)c1cc(CO)c(NCc2ccco2)cc1Cl : 117
O=C(O)c1cc(S(=O)(=O)N2CCOCC2)c(Cl)cc1NCc1ccco1 : 41.2
CCCCCCNS(=O)(=O)c1cc(C(=O)O)c(NCc2ccco2)cc1Cl : 47.8
CC(NS(=O)(=O)c1cc(C(=O)O)c(NCc2ccco2)cc1Cl)c1ccccc1 (stereo not drawn) : 41.1
CNS(=O)(=O)c1cc(C(=O)O)c(NCc2ccco2)cc1Cl : 53

Proceed to the following item.
## Input Output measured IC50 for this item: "O=C(O)c1cc(S(=O)(=O)NC2CCCCC2)c(Cl)cc1NCc1ccco1"
## Output 116

###

test system: SIM-A9 cells; test: Anti-inflammation assay: TNF-α production from LPS stimulated SIM-A9 cells (ELISA); type: cell-based; conditions: SIM-A9, read-out: TNF-α Inhibition
METRIC NAME: inhibition at 2.7 µM (%)
The answer is to be given in %; state only the numeric part.

Example entries and their recorded answers appear below.
OC(c1ccc(F)cc1NCc1ccco1)C(F)(F)F (stereo not shown) : 25.9
OC(c1ccc(Br)cc1NCc1ccco1)C(F)(F)F (stereo not shown) : 34.8
OC(c1ccc(Br)cc1NCc1cscn1)C(F)(F)F (stereo not shown) : 31
COc1ccc(C(O)C(F)(F)F)c(NCc2ccco2)c1 (stereo not shown) : 28
OC(c1ccc(Cl)cc1NCc1ccco1)C(F)(F)F (stereo not shown) : 33

## Input Output measured inhibition at 2.7 µM for this item: COc1ccc(C(O)C(F)(F)F)c(NCc2cscn2)c1 (stereo not shown)
## Output 27

## Input Output measured inhibition at 2.7 µM for this item: OC(c1ccc(Cl)cc1NCc1cscn1)C(F)(F)F (stereo not shown)
## Output 38

###

target: Aβ 1-40 (Homo sapiens); test: Aβ ThT aggregation (fibrillization) assay; type: biochemical; settings: read-out: Inhibition of Aβ fibrillization at concentration 100 μM, Inhibition %, compound at 100 μM; Example 5; versus DMSO control
The threshold is inclusive: inhibition at 100 µM of exactly 30% counts as fulfilled; values below receive not fulfilled.

OC(c1ccc(Cl)cc1NCc1cscn1)C(F)(F)F (stereo not shown) : not fulfilled
OC(c1ccc(Br)cc1NCc1cscn1)C(F)(F)F (stereo not shown) : fulfilled
OC(c1ccc(Br)cc1NCc1ccco1)C(F)(F)F (stereo not shown) : fulfilled

## Input Can COc1ccc(C(O)C(F)(F)F)c(NCc2cscn2)c1 (stereo not shown) be said to have inhibition at 100 µM at or above 30%?
## Output not fulfilled

## Input Can OC(c1ccc(Cl)cc1NCc1ccco1)C(F)(F)F (stereo not shown) be said to have inhibition at 100 µM at or above 30%?
## Output fulfilled

## Input Can COc1ccc(C(O)C(F)(F)F)c(NCc2ccco2)c1 (stereo not shown) be said to have inhibition at 100 µM at or above 30%?
## Output fulfilled

## Input Can OC(c1ccc(F)cc1NCc1ccco1)C(F)(F)F (stereo not shown) be said to have inhibition at 100 µM at or above 30%?
## Output not fulfilled

###

target: biotinylated amyloid-beta(1-42) (bioAbeta42) (Homo sapiens); assay type: biochemical; conditions: Example 2; read-out: Anti-Aβ oligomerization IC50
METRIC NAME: pIC50
Expect pIC50 as a plain number equal to -log10 of the molar concentration.

Example entries and their recorded answers appear below.
CN(Cc1ccccc1)S(=O)(=O)c1cc(C(=O)O)c(NCc2ccco2)cc1Cl : 4.66
CC(NS(=O)(=O)c1cc(C(=O)O)c(NCc2ccco2)cc1Cl)c1ccccc1 (centres unmarked) : 4.41
CNS(=O)(=O)c1cc(C(=O)O)c(NCc2ccco2)cc1Cl : 4.26

## Input Tell me its pIC50 on biotinylated amyloid-beta(1-42) (bioAbeta42) (Homo sapiens): "O=C(O)c1cc(S(=O)(=O)N2CCOCC2)c(Cl)cc1NCc1ccco1"
## Output 4.41

## Input Tell me its pIC50 on biotinylated amyloid-beta(1-42) (bioAbeta42) (Homo sapiens): "CCCCCCNS(=O)(=O)c1cc(C(=O)O)c(NCc2ccco2)cc1Cl"
## Output 4.34

###

This listing pairs compounds with measured IC50.
target: biotinylated amyloid-beta(1-42) (bioAbeta42) (Homo sapiens); assay type: biochemical; conditions: Example 5; ND = inhibition activity not detected over 200 μM; read-out: Inhibition of Aβ oligomerization, μM IC50
The answer is to be given in µM; state only the numeric part.

Example entries and their recorded answers appear below.
OC(c1ccc(F)cc1NCc1ccco1)C(F)(F)F (centres unmarked) : 153
CNC(=O)c1cc(S(=O)(=O)NC)c(Cl)cc1NCc1ccco1 : 103

Proceed to the following item.
## Input Output measured IC50 for this item: "CN(Cc1ccccc1)S(=O)(=O)c1cc(C(=O)O)c(NCc2ccco2)cc1Cl"
## Output 21.9

###

target: biotinylated amyloid-beta(1-42) (bioAbeta42) (Homo sapiens); type: biochemical; conditions: Example 5; ND = inhibition activity not detected over 200 μM; read-out: Inhibition of Aβ oligomerization, μM IC50
This listing pairs compounds with measured IC50.

O=C(O)c1cc(C(=O)N2CCOCC2)c(Cl)cc1NCc1ccco1 : > 200 µM
COc1ccc(C(O)C(F)(F)F)c(NCc2cscn2)c1 (stereo not drawn) : 130 µM
O=C(Nc1ccccc1)c1cc(C(=O)O)c(NCc2ccco2)cc1Cl : > 200 µM
CN(C)C(=O)c1cc(C(=O)O)c(NCc2ccco2)cc1Cl : > 200 µM
O=C(O)c1cc(S(=O)(=O)NCc2ccccc2)c(Cl)cc1NCc1ccco1 : > 200 µM

## Input Tell me its IC50 on biotinylated amyloid-beta(1-42) (bioAbeta42) (Homo sapiens): "O=C(O)c1cc(S(=O)(=O)N2CCCCC2)c(Cl)cc1NCc1ccco1"
## Output > 200 µM
